# Test system: Saccharomyces cerevisiae BY4741 SeMeCo community
# run_description: z-score of subpopulation abundance vs DMSO median, subpopulation auxotrophic for LU; higher = larger share of this subpopulation than in DMSO controls
# run_conditions: 10 µM; 24 h; SM minimal medium; subpopulation (auxotrophy): LU
Where a name gives a salt, the structure may show the parent alone.
quantity_name: z-score of subpopulation abundance
Just the number, please, no unit attached.

{"compound": "COc1ccc2cc3[n+](cc2c1OC)CCc1cc2c(cc1-3)OCO2 [Berberine Sulfate]", "subject_of_test": "Saccharomyces cerevisiae BY4741 SeMeCo community", "reported": -0.21}
{"compound": "Nc1nc(O)c2ncn(CCC(CO)CO)c2n1", "subject_of_test": "Saccharomyces cerevisiae BY4741 SeMeCo community", "reported": 0.58}
{"compound": "CN1CCC[C@@H]1Cc1c[nH]c2ccc(CCS(=O)(=O)c3ccccc3)cc12", "subject_of_test": "Saccharomyces cerevisiae BY4741 SeMeCo community", "reported": -1.12}

Next up:
INPUT: Observed z-score of subpopulation abundance on Saccharomyces cerevisiae BY4741 SeMeCo community for O=C1CN(/N=C/c2ccc(-c3ccc([N+](=O)[O-])cc3)o2)C(=O)N1 [Dantrolene sodium] , please.
OUTPUT: -2.49

* * *

# Test system: Saccharomyces cerevisiae BY4741 SeMeCo community
# run_description: z-score of subpopulation abundance vs DMSO median, subpopulation auxotrophic for L; higher = larger share of this subpopulation than in DMSO controls
# run_conditions: 10 µM; 24 h; SM minimal medium; subpopulation (auxotrophy): L
Rule: Fulfilled for z-score of subpopulation abundance not less than -0.4, Not fulfilled for anything less.

Some entries whose results are on file:
{"compound": "CCOC(=O)OC(C)OC1=C(C(=O)Nc2ccccn2)N(C)S(=O)(=O)c2ccccc21 (stereo unspecified)", "cat": "Fulfilled"}
{"compound": "O=C1CN(/N=C/c2ccc(-c3ccc([N+](=O)[O-])cc3)o2)C(=O)N1 [Dantrolene sodium hemiheptahydrate]", "cat": "Fulfilled"}
{"compound": "Cc1cc(NS(=O)(=O)c2ccc(N)cc2)nc(C)n1", "cat": "Fulfilled"}
{"compound": "CCC(C)(Oc1ccc(C2(c3ccc(OC(C)(CC)C(=O)O)cc3)CCCCC2)cc1)C(=O)O (stereo unspecified) [Clinofibrate]", "cat": "Not fulfilled"}
{"compound": "CCCN[C@H]1CCc2nc(N)sc2C1 [Pramipexole 2HCl Monohydrate]", "cat": "Fulfilled"}

Could you now look at the following compound, please?
INPUT: Determine whether measured z-score of subpopulation abundance meets or exceeds -0.4 for `O=S1(=O)CCN(CN2CCS(=O)(=O)NC2)CN1`
OUTPUT: Not fulfilled

* * *

# Test system: Saccharomyces cerevisiae BY4741 SeMeCo community
# run_description: mean cell size (pixel area) (pixels); higher = larger cells
# run_conditions: 10 µM; 24 h; SM minimal medium
Where a name gives a salt, the structure may show the parent alone.
Entries and their mean cell size
Just the number, please, no unit attached.

{"compound": "CCC1(C)CC(=O)NC1=O (stereo not given) [Ethosuximide]", "quantity_name": "mean cell size", "reported": 12.6}
{"compound": "COc1cc(N)c(Cl)cc1C(=O)NC1CCN(CCCOc2ccc(F)cc2)CC1OC (stereo not given) [Cisapride hydrate]", "quantity_name": "mean cell size", "reported": 12.5}
{"compound": "CCCCCOc1ccc(-c2ccc(-c3ccc(C(=O)N[C@H]4C[C@@H](O)[C@@H](O)NC(=O)[C@@H]5[C@@H](O)[C@@H](C)CN5C(=O)[C@H]([C@@H](C)O)NC(=O)[C@H]([C@H](O)[C@@H](O)c5ccc(O)cc5)NC(=O)[C@@H]5C[C@@H](O)CN5C(=O)[C@H]([C@@H](C)O)NC4=O)cc3)cc2)cc1", "quantity_name": "mean cell size", "reported": 12.6}
{"compound": "O=C(Cn1cnnn1)N[C@@H]1C(=O)N2C(C(=O)O)=C(CSc3nncs3)CS[C@H]12 [Ceftezole]", "quantity_name": "mean cell size", "reported": 12}

Next up:
INPUT: mean cell size for C#CCN(C)Cc1ccccc1 [Pargyline hydrochloride] ?
OUTPUT: 12.7

* * *

# Test system: Saccharomyces cerevisiae BY4741 SeMeCo community
# run_description: z-score of subpopulation abundance vs DMSO median, subpopulation auxotrophic for HLM; higher = larger share of this subpopulation than in DMSO controls
# run_conditions: 10 µM; 24 h; SM minimal medium; subpopulation (auxotrophy): HLM
Entries and their z-score of subpopulation abundance
Just the number, please, no unit attached.

The cases that follow already have their z-score of subpopulation abundance on record.
{"compound": "CCCCCCCCCCCCCCCCOP(=O)([O-])OCC[N+](C)(C)C", "subject_of_test": "Saccharomyces cerevisiae BY4741 SeMeCo community", "z-score of subpopulation abundance": 15.6}
{"compound": "Clc1ccc(CCC(Cn2ccnc2)Sc2c(Cl)cccc2Cl)cc1 (stereo not drawn)", "subject_of_test": "Saccharomyces cerevisiae BY4741 SeMeCo community", "z-score of subpopulation abundance": 27.1}

INPUT: Observed z-score of subpopulation abundance on Saccharomyces cerevisiae BY4741 SeMeCo community for Clc1ccc(CSC(Cn2ccnc2)c2ccc(Cl)cc2Cl)cc1 (stereo not drawn) [Sulconazole Nitrate] , please.
OUTPUT: 24.7

* * *

Entries and their z-score of subpopulation abundance
# Test system: Saccharomyces cerevisiae BY4741 SeMeCo community
# run_description: z-score of subpopulation abundance vs DMSO median, subpopulation auxotrophic for LM; higher = larger share of this subpopulation than in DMSO controls
# run_conditions: 10 µM; 24 h; SM minimal medium; subpopulation (auxotrophy): LM
Counter-ions that a name gives are not always drawn.
Just the number, please, no unit attached.

{"compound": "C[C@@H]1CC(=O)NN=C1c1ccc(NN=C(C#N)C#N)cc1", "quantity_name": "z-score of subpopulation abundance", "reported": -0.47}
{"compound": "Nc1ccc(S(=O)(=O)Nc2ccnn2-c2ccccc2)cc1", "quantity_name": "z-score of subpopulation abundance", "reported": -0.2}
{"compound": "Cc1noc(NS(=O)(=O)c2ccc(N)cc2)c1C", "quantity_name": "z-score of subpopulation abundance", "reported": 0.69}

INPUT: z-score of subpopulation abundance for C[C@@H](O)[C@H]1C(=O)N2C(C(=O)O)=C(S[C@@H]3CN[C@H](C(=O)N(C)C)C3)[C@H](C)[C@H]12 [Meropenem Trihydrate] ?
OUTPUT: 0.14

INPUT: Also check CNCCCN1c2ccccc2CCc2ccccc21 [Desipramine Hydrochloride]
OUTPUT: 0.26

INPUT: Also check `CO[C@H]1C[C@@H]2CC[C@@H](C)[C@@](O)(O2)C(=O)C(=O)N2CCCC[C@H]2C(=O)O[C@H]([C@H](C)C[C@@H]2CC[C@@H](OP(C)(C)=O)[C@H](OC)C2)CC(=O)[C@H](C)/C=C(\C)[C@@H](O)[C@@H](OC)C(=O)[C@H](C)C[C@H](C)/C=C/C=C/C=C/1C`
OUTPUT: 5.98

INPUT: Also check CN(C)CCN1C(=O)c2cccc3cc(N)cc(c23)C1=O [Amonafide]
OUTPUT: 1.08

INPUT: Also check Cc1cc(C)nc(NS(=O)(=O)c2ccc(N)cc2)n1 [Sulfamethazine Sodium Salt]
OUTPUT: -0.63

INPUT: Also check `C[C@H]1[C@H](NC(=O)/C(=N\OC(C)(C)C(=O)O)c2csc(N)n2)C(=O)N1S(=O)(=O)O`
OUTPUT: 0.99

INPUT: Also check `Nc1ccc(C(=O)O)c(O)c1`
OUTPUT: 0.62

INPUT: Also check CC1(C)S[C@@H]2[C@H](NC(=O)Cc3ccccc3)C(=O)N2[C@H]1C(=O)O [Penicillin G Sodium]
OUTPUT: -0.29

INPUT: Also check OCCOCCN1CCN(C2=Nc3ccccc3Sc3ccccc32)CC1 [Quetiapine Fumarate]
OUTPUT: 0.32

INPUT: Also check CC(C)N1CCN(c2ccc(OCC3COC(Cn4cncn4)(c4ccc(Cl)cc4Cl)O3)cc2)CC1 (stereo not given)
OUTPUT: -0.49

INPUT: Also check CCCc1nn(C)c2c(=O)[nH]c(-c3cc(S(=O)(=O)N4CCN(C)CC4)ccc3OCC)nc12 [Sildenafil Mesylate]
OUTPUT: -0.29

INPUT: Also check `CC[C@H]1OC(=O)C[C@@H](O)[C@H](C)[C@@H](O[C@@H]2O[C@H](C)[C@@H](O[C@H]3C[C@@](C)(O)[C@@H](O)[C@H](C)O3)[C@H](N(C)C)[C@H]2O)[C@@H](CC=O)C[C@@H](C)C(=O)/C=C/C(C)=C/[C@@H]1CO[C@@H]1O[C@H](C)[C@@H](O)[C@@H](OC)[C@H]1OC`
OUTPUT: 1.45

* * *

# Tested on: Saccharomyces cerevisiae BY4741 SeMeCo community
# run_description: z-score of subpopulation abundance vs DMSO median, subpopulation auxotrophic for HUM; higher = larger share of this subpopulation than in DMSO controls
# run_conditions: 10 µM; 24 h; SM minimal medium; subpopulation (auxotrophy): HUM
Entries and their z-score of subpopulation abundance

{"compound": "CCN1CCCC1CNC(=O)c1cc(S(N)(=O)=O)ccc1OC (configuration not stated) [Sulpiride]", "z-score of subpopulation abundance": -0.68}
{"compound": "CCCCC(F)(F)[C@@]1(O)CC[C@H]2[C@@H](CC(=O)[C@@H]2CCCCCCC(=O)O)O1", "z-score of subpopulation abundance": -1.08}
{"compound": "CCN1CCCC1CNC(=O)c1cc(S(=O)(=O)CC)c(N)cc1OC (configuration not stated) [Amisulpride]", "z-score of subpopulation abundance": -0.03}

INPUT: Observed z-score of subpopulation abundance on Saccharomyces cerevisiae BY4741 SeMeCo community for COc1cc([C@@H]2c3cc4c(cc3[C@@H](O[C@@H]3O[C@@H]5CO[C@@H](C)O[C@H]5[C@H](O)[C@H]3O)[C@H]3COC(=O)[C@H]23)OCO4)cc(OC)c1O [Etoposide] , please.
OUTPUT: 0.64

Cited source for all entries: the supplement of paper PMC8975748
